- Assay: PK study of Form A and Form B in Rat
- Format: in vivo
- Conditions: rat, in vivo, 75 mg/kg, read-out: Median Tmax
Metric name: Tmax (h)
Please state the figure in h; there is no need to write the unit.

### Prompt Which Tmax reading was recorded for the molecule C=CC(=O)Nc1cc(Nc2nccc(Nc3cc(Cl)c(F)cc3C(C)(C)O)n2)c(OC)cc1N1CC[C@@H](N(C)C)C1 [Form A] ?
### Response 4

---

- Assay: PK study of Form A and Form B in Rat
- Type: in vivo
- Conditions: rat, in vivo, 75 mg/kg, read-out: Mean AUC0~48
Metric name: AUC(0-t)
Reply with the number, then its unit.

### Prompt Which AUC(0-t) reading was recorded for the compound C=CC(=O)Nc1cc(Nc2nccc(Nc3cc(Cl)c(F)cc3C(C)(C)O)n2)c(OC)cc1N1CC[C@@H](N(C)C)C1 [Form A] ?
### Response 6870 ng·h/mL

Reference source: patent US20250197377A1
